Assay overview: chemical genetic growth profiling, strain panel (AID 1159580);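 also: tested at 20 µM; growth read once vehicle control cultures reached saturation at 30 °C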
Assay context: S. cerevisiae deletion strains, growth OD, locus YLR268W, strain sec22, hits give low values
Out of some 5,500 compounds screened, about 2,000 (36%) were called active. About 18% were inconclusive and are not listed. Some of the results follow.
Lab note: anything with normalized growth below 1 is marked Y; values at 1 or higher are marked N.

In: Check if normalized growth falls below 1 for `CCOc1ccc2c(c1)C(C)=CC(C)(C)N2` .
Out: Y

In: For this compound, is normalized growth lower than 1? `O=C1OCCN1/N=C\c1ccc([N+](=O)[O-])o1`
Out: Y

In: Answer whether the compound `NC(=O)N/N=C\c1ccc([N+](=O)[O-])o1` has normalized growth strictly less than 1
Out: Y

In: Dear reviewer, please state whether `C[C@](N)(Cc1ccc(O)c(O)c1)C(=O)O` has normalized growth strictly beneath 1.
Out: N
